log10 of EC50 by entry:
# TARGET_OF_ASSAY: Oxysterols receptor LXR-beta (Homo sapiens, UniProt P55055)
# Sequence (P55055 whole entry): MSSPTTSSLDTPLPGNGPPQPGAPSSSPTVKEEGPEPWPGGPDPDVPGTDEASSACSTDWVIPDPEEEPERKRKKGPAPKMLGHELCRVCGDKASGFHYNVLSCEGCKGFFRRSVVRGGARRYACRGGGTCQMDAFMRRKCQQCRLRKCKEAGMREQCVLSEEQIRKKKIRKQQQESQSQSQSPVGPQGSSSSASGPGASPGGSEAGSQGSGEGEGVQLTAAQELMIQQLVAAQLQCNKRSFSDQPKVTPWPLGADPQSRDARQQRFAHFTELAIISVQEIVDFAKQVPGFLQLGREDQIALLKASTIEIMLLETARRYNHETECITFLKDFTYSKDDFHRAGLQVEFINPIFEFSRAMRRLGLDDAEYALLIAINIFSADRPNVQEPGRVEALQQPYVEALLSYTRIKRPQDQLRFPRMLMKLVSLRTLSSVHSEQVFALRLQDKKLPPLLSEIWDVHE
# EXPERIMENT_NOTES: Agonist activity at human LXRbeta expressed in HEK293 cells co-expressing CMX-beta-galactosidase incubated for 16 hrs by luciferase reporter gene assay
# Type: cell-based
Log scale reminder: EC50 in µM, then log10 taken.

Past entries and their recorded results:
{"columns": ["STRUCTURE_STRING", "TARGET_OF_ASSAY", "log10 of EC50"],
 "data": [
  ["O=C1c2c(Cl)c(Cl)c(Cl)c(Cl)c2C(=O)N1c1ccccc1Oc1ccccc1", "Oxysterols receptor LXR-beta (Homo sapiens, UniProt P55055)", 0.95],
  ["O=C1c2c(Cl)c(Cl)c(Cl)c(Cl)c2C(=O)N1c1ccccc1/C=C/c1ccsc1", "Oxysterols receptor LXR-beta (Homo sapiens, UniProt P55055)", -0.04],
  ["O=C1c2c(Cl)c(Cl)c(Cl)c(Cl)c2C(=O)N1c1ccccc1CCc1ccccc1", "Oxysterols receptor LXR-beta (Homo sapiens, UniProt P55055)", 0.70],
  ["O=C1c2c(Cl)c(Cl)c(Cl)c(Cl)c2C(=O)N1c1ccccc1/C=C/c1ccco1", "Oxysterols receptor LXR-beta (Homo sapiens, UniProt P55055)", 0.67],
  ["O=C1c2c(Cl)c(Cl)c(Cl)c(Cl)c2C(=O)N1c1ccccc1/C=C/c1ccccn1", "Oxysterols receptor LXR-beta (Homo sapiens, UniProt P55055)", 0.68],
  ["O=C1c2c(Cl)c(Cl)c(Cl)c(Cl)c2C(=O)N1c1ccccc1-c1ccccc1", "Oxysterols receptor LXR-beta (Homo sapiens, UniProt P55055)", 0.24]
]}

Q. Returns the measured log10 of EC50 for the input compound. Input: `O=C1c2c(Cl)c(Cl)c(Cl)c(Cl)c2C(=O)N1c1ccccc1Cc1ccccc1`
A. 0.90

Q. Returns the measured log10 of EC50 for the input compound. Input: `O=C1c2c(Cl)c(Cl)c(Cl)c(Cl)c2C(=O)N1c1ccccc1/C=C/c1cccnc1`
A. 0.70

Q. Returns the measured log10 of EC50 for the input compound. Input: `O=C1c2c(Cl)c(Cl)c(Cl)c(Cl)c2C(=O)N1c1ccccc1/C=C/c1ccccc1`
A. -0.57

Q. Returns the measured log10 of EC50 for the input compound. Input: `O=C1c2c(Cl)c(Cl)c(Cl)c(Cl)c2C(=O)N1c1ccccc1/C=C/c1nccs1`
A. 0.56

Q. Returns the measured log10 of EC50 for the input compound. Input: `O=C1c2c(Cl)c(Cl)c(Cl)c(Cl)c2C(=O)N1c1ccccc1/C=C/c1cccs1`
A. -0.25

* * *

Efficacy by entry:
# TARGET_OF_ASSAY: Oxysterols receptor LXR-beta (Homo sapiens) (UniProt P55055)
# Sequence (P55055 whole entry): as above
# EXPERIMENT_NOTES: Agonist activity at human LXRbeta expressed in HEK293 cells co-expressing CMX-beta-galactosidase incubated for 16 hrs by luciferase reporter gene assay relative to T0901317
# Assay type: cell-based
Form entry: value (%) — number only.

{"columns": ["STRUCTURE_STRING", "RESULT_NUMBER"],
 "data": [
  ["O=C1c2c(Cl)c(Cl)c(Cl)c(Cl)c2C(=O)N1c1ccccc1/C=C/c1ccccc1", 143]
]}

Q. Returns the measured Efficacy for the input compound. Input: `O=C1c2c(Cl)c(Cl)c(Cl)c(Cl)c2C(=O)N1c1ccccc1-c1ccccc1`
A. 153

Q. Returns the measured Efficacy for the input compound. Input: `O=C1c2c(Cl)c(Cl)c(Cl)c(Cl)c2C(=O)N1c1ccccc1/C=C/c1cccs1`
A. 149

Q. Returns the measured Efficacy for the input compound. Input: `O=C1c2c(Cl)c(Cl)c(Cl)c(Cl)c2C(=O)N1c1ccccc1/C=C/c1ccco1`
A. 167

Q. Returns the measured Efficacy for the input compound. Input: `O=C1c2c(Cl)c(Cl)c(Cl)c(Cl)c2C(=O)N1c1ccccc1/C=C/c1ccccn1`
A. 148

Q. Returns the measured Efficacy for the input compound. Input: `O=C1c2c(Cl)c(Cl)c(Cl)c(Cl)c2C(=O)N1c1ccccc1Oc1ccccc1`
A. 99

Q. Returns the measured Efficacy for the input compound. Input: `O=C1c2c(Cl)c(Cl)c(Cl)c(Cl)c2C(=O)N1c1ccccc1/C=C/c1cccnc1`
A. 141

Q. Returns the measured Efficacy for the input compound. Input: `O=C1c2c(Cl)c(Cl)c(Cl)c(Cl)c2C(=O)N1c1ccccc1/C=C/c1nccs1`
A. 151

Q. Returns the measured Efficacy for the input compound. Input: `O=C1c2c(Cl)c(Cl)c(Cl)c(Cl)c2C(=O)N1c1ccccc1/C=C/c1ccsc1`
A. 133

Q. Returns the measured Efficacy for the input compound. Input: `O=C1c2c(Cl)c(Cl)c(Cl)c(Cl)c2C(=O)N1c1ccccc1CCc1ccccc1`
A. 117

Q. Returns the measured Efficacy for the input compound. Input: `O=C1c2c(Cl)c(Cl)c(Cl)c(Cl)c2C(=O)N1c1ccccc1Cc1ccccc1`
A. 109

The values you see were collected from ChEMBL document CHEMBL4184249.
